Source of measurements: paper PMC3376392

# system: UniProtKB Q8L746
# Sequence (Q8L746 whole entry): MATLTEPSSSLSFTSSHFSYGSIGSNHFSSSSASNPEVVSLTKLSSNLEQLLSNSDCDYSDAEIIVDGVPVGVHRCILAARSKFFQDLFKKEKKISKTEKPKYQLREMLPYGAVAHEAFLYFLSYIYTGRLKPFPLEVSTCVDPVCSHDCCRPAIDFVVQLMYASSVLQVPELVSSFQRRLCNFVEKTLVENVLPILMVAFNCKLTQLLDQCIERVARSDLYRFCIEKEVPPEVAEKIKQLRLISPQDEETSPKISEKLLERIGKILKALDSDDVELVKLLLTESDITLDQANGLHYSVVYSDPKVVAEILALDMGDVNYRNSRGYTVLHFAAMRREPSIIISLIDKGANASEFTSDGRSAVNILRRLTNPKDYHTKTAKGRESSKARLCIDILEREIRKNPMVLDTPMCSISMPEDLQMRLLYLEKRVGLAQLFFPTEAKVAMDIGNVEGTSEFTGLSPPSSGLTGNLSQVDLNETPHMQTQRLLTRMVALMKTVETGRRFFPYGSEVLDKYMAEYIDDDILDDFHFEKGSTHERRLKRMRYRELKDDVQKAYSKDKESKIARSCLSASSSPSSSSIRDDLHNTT
measurement_type: Kd

molecule | observed
O=C(O)c1ccccc1O [SA, Salicylic acid] | 981 nM
